Tested on: Escherichia coli B
Assay: Ratio of IC50 for inhibition of Phe-tRNA synthetase in rel+ Escherichia coli B assessed as growth inhibition to Ki for inhibition of rel+ Escherichia coli B Phe-tRNA synthetase using L-[3H]-phenylalanine as substrate
Could you please report measured Ratio for the items listed next?
One number for each entry.

In the examples that follow, each entry is paired with its recorded Ratio.
NCCc1ccccc1 [PHENETHYLAMINE] : 117
c1ccc(CCNCc2ccccc2)cc1 : 115

Answer for every listed entry: what is its Ratio? The entries follow.
1. C[C@H](Cc1ccccc1)NCc1ccccc1 [N-BENZYLAMPHETAMINE]
2. C[C@@H](Cc1ccccc1)NCc1ccccc1
3. OC[C@@H](Cc1ccccc1)NCc1ccccc1

Data returned:
[107, 105, 106]
